Recorded values, source PubChem BioAssay (NCATS).

- protocol description: Primary qHTS for inhibitors of SARS-S pseudo-typed particle cell entry (AID 1479145); note: nearly all actives have a fitted effect of over 45% in size
- measurement context: SARS-S pseudotyped particle cell entry, luciferase reporter; series mostly up to 57.1 µM
Results filed as inconclusive are left out. Active and inactive are the calls of the source. Calls come from the whole dose curve.
Mark one answer only. Choices: active, inactive

Example results:
[[record]]
molecule = "COc1ccc2c(c1)c(CC(=O)OCC(=O)O)c(C)n2C(=O)c1ccc(Cl)cc1"
assigned_class = "inactive"

[[record]]
molecule = "Cc1cc(C(C)(C)C)c(O)c(C)c1CC1=NCCN1"
assigned_class = "inactive"

[[record]]
molecule = "C1CCC(C(CC2CCCCN2)C2CCCCC2)CC1 (configuration not stated)"
assigned_class = "active"


Per the records of this test, what outcome belongs to `CC(=O)N[C@H]1[C@H]([C@H](O)[C@H](O)CO)OC(C(=O)O)=C[C@@H]1N=C(N)N` ?
inactive

Per the records of this test, what outcome belongs to `COc1ccc(CN(CCN(C)C)c2ccccn2)cc1` ?
inactive

Per the records of this test, what outcome belongs to `Cc1[nH]c(C)c(Cl)c(=O)c1Cl` ?
inactive

Per the records of this test, what outcome belongs to `CCOC(=O)C(C)(C)Oc1ccc(Cl)cc1` ?
inactive

Per the records of this test, what outcome belongs to `Cc1ccc(/C=N/n2c(-c3ccccc3)csc2=S)cc1` ?
inactive

Per the records of this test, what outcome belongs to `Nc1ccc2cc3ccc(N)cc3nc2c1` ?
active

Per the records of this test, what outcome belongs to COP(=O)(OC)C(O)C(Cl)(Cl)Cl (configuration not stated) ?
inactive

Per the records of this test, what outcome belongs to `COc1nc(C)nc(Cl)c1NC1=NCCN1` ?
inactive

###

- protocol description: Cell Viability - SK-N-SH (AID 435);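 note: potency is the fitted concentration of half-maximal effect; compound exposure lasted 40 h at 37 °C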
- measurement context: SK-N-SH neuroblastoma cell viability qHTS
- Description: NIH Chemical Genomics Center [NCGC] NIH Molecular Libraries Screening Centers Network [MLSCN] National Institutes of Environmental Health Sciences [NIEHS] National Toxicology Program [NTP] We have developed a 1536-well cell-based assay for quantitative high throughput screening (qHTS) against a number of cell lines to determine in vitro cytotoxicity of small molecules. […] 8. Detection; Luminescence; Viewlux plate reader […]
Inconclusive results are not listed. Calls of active or inactive are those of the source. Calls follow the shape of the full dose curve.
Mark one answer only. Choices: 1 (yes) = active, 0 (no) = inactive

Example results:
[[record]]
structure_notation = "COP(=O)(OC)OC=C(Cl)Cl"
assigned_class = "0 (no)"

[[record]]
structure_notation = "CNC(=O)Oc1cccc2ccccc12"
assigned_class = "0 (no)"

[[record]]
structure_notation = "CC[n+]1c(-c2ccccc2)c2cc(N)ccc2c2ccc(N)cc21"
assigned_class = "0 (no)"


Per the records of this test, what outcome belongs to `CCCCCCCCCCCC[N+](C)(C)CCOc1ccccc1` ?
1 (yes)

Per the records of this test, what outcome belongs to `Oc1c(Br)cc(Br)cc1Br` ?
0 (no)

Per the records of this test, what outcome belongs to `CN(C)C(=S)SSC(=S)N(C)C` ?
1 (yes)

###

- Tested on: PC49
- protocol description: qHTS profiling for inhibitors of Plasmodium falciparum proliferation (AID 504749); note: nearly all actives have a fitted effect of over 60% in size; note: potency is the fitted concentration of half-maximal effect
- measurement context: P. falciparum in erythrocytes, SYBR Green DNA, 72 h; series mostly up to 28.7 µM
Records with an inconclusive call do not appear. Activity calls are given as the source filed them. Calls follow the shape of the dose curve; as a rule, active = well fitted inhibition curve with a large enough effect; inconclusive = small, poorly fitted or top-dose-only effect; inactive = flat fitted curve, though single readings scatter.
measurement label: Potency

[[record]]
compound = "C[C@]12Cc3nonc3C[C@@H]1CC[C@@H]1[C@@H]2CC[C@@]2(C)[C@H]1CC[C@]2(C)O"
measurement_label = "Potency"
test_result = "inactive"

[[record]]
compound = "O=c1n(Cl)c(=O)n(Cl)c(=O)n1Cl"
measurement_label = "Potency"
test_result = "inactive"

[[record]]
compound = "C#C[C@]1(O)CC[C@H]2[C@@H]3CCC4=CC(=O)CCC4=C3C=C[C@@]21CC"
measurement_label = "Potency"
test_result = "8.91 µM (active)"

[[record]]
compound = "COC(=O)C1=CCCN(C)C1"
measurement_label = "Potency"
test_result = "inactive"

[[record]]
compound = "CC(C)(C)OC(=O)c1ncn2c1[C@@H]1CCCN1C(=O)c1c(Br)cccc1-2"
measurement_label = "Potency"
test_result = "inactive"


State its Potency for this compound: `CC(C)[N+](C)(CCC(C(N)=O)(c1ccccc1)c1ccccc1)C(C)C`
inactive

State its Potency for this compound: CC(C)NCC(O)c1ccc(N)c(C#N)c1 (centres undefined)
inactive

State its Potency for this compound: `CCC(=O)O[C@H]1CC[C@H]2[C@@H]3CCC4=CC(=O)CC[C@]4(C)[C@H]3CC[C@]12C`
inactive

State its Potency for this compound: `C[N+]1(CCC(C(N)=O)(c2ccccc2)c2ccccc2)CCCCC1`
inactive
